Where do these numbers come from? They come from ChEMBL document CHEMBL6182948.

study_target: Cytochrome P450 1B1 (Homo sapiens)
Sequence (Q16678 whole entry): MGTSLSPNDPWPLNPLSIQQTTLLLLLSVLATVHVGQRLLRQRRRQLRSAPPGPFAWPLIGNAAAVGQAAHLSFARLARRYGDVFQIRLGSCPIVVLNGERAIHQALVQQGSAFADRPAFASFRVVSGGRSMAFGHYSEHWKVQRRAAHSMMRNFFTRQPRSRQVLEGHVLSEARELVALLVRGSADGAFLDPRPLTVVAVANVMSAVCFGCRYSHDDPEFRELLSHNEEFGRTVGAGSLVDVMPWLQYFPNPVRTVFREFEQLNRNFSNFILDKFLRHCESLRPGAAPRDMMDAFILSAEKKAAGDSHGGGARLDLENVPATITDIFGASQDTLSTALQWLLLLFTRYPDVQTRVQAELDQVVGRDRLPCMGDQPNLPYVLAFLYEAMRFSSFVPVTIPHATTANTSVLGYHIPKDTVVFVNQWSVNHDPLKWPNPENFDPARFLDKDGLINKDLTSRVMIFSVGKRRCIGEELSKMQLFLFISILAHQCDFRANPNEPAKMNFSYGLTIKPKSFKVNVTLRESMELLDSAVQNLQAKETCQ
assay_procedure: Inhibition of human recombinant CYP1B1 using 7-ethoxyresorufin as substrate incubated under dark condition for 30 mins in presence of NADPH by EROD fluorescence assay
pIC50: −log10 of the molar value.
reported_metric: pIC50

// worked examples, pIC50 included
molecule_smiles: O=C(Nc1ccc(Cl)cc1Cl)c1nc(-c2ccccc2)cs1
numeric_readout: 8.45

molecule_smiles: NC(=O)c1cccc(-c2csc(C(=O)Nc3ccc(OC(F)F)cc3)n2)c1
numeric_readout: 8.70

molecule_smiles: O=C(Nc1ccc(C(F)(F)F)cc1)c1nc(-c2cccc(Cl)c2)cs1
numeric_readout: 9.28

molecule_smiles: N#Cc1ccc(-c2csc(C(=O)Nc3cc(Cl)cc(Cl)c3)n2)cc1
numeric_readout: 8.75

molecule_smiles: O=C(Nc1cc(Cl)cc(Cl)c1)c1nc(-c2ccc(F)cc2)cs1
numeric_readout: 8.85

[a] O=C(Nc1cc(Cl)cc(Cl)c1)c1nc(-c2ccccc2Cl)cs1
[b] COc1ccc(OC)c(NC(=O)c2nc(-c3ccccc3)cs2)c1
Looking at recorded values for pIC50, does a or b come in lower? I would appreciate it if you answered with the label of your choice.
b
(b: 7.66, a: 8.10)

[a] O=C(Nc1ccc(Cl)cc1Cl)c1nc(-c2cccc(F)c2)cs1
[b] NC(=O)c1ccc(-c2csc(C(=O)Nc3ccc(C(F)(F)F)cc3)n2)cc1
Looking at recorded values for pIC50, does a or b come in lower? I would appreciate it if you answered with the label of your choice.
a

[1] O=C(Nc1ccc(OC(F)F)cc1)c1nc(-c2cccc(Cl)c2)cs1
[2] COc1cc(Cl)cc(NC(=O)c2nc(-c3ccccc3)cs2)c1
[3] N#Cc1ccc(-c2csc(C(=O)Nc3ccc(C(F)(F)F)cc3)n2)cc1
[4] O=C(Nc1cc(Cl)cc(Cl)c1)c1nc(-c2ccc(O)cc2)cs1
Form: Sort by [pIC50] Order [ ascending ] Hello, could you send the labels back in the order asked? Thank you.
4, 2, 1, 3

[1] O=C(Nc1ccc(-n2ccnc2)cc1)c1nc(-c2ccccc2)cs1
[2] Cc1sc(C(=O)Nc2cc(Cl)cc(Cl)c2)nc1-c1cccc(F)c1
[3] COc1cc(NC(=O)c2nc(-c3ccc(F)cc3)cs2)cc(OC)c1
[4] Cc1ccc(NC(=O)c2nc(-c3ccccc3)cs2)cc1
[5] O=C(Nc1ccc(C(F)(F)F)cc1)c1nc(-c2cccc(F)c2)cs1
Arrange these molecules by their pIC50, starting with the largest number. Hello, could you send the labels back in the order asked? Thank you.
5, 2, 1, 3, 4
(5: 9.54, 2: 9.06, 1: 8.83, 3: 8.42, 4: 7.43)

====

Species: Homo sapiens
assay_procedure: Selectivity index, ratio of IC50 for human recombinant CYP1A1 to IC50 for human recombinant CYP1B1 using 7-ethoxyresorufin as substrate
reported_metric: Ratio IC50

[I] O=C(Nc1ccc(Cl)cc1Cl)c1nc(-c2ccccc2)cs1
[II] Cc1sc(C(=O)Nc2cc(Cl)cc(Cl)c2)nc1-c1cccc(F)c1
Between I and II , whose recorded Ratio IC50 is greater? I would appreciate it if you answered with the label of your choice.
II

[P] O=C(Nc1cc(Cl)cc(Cl)c1)c1nc(-c2ccc(-c3ccccc3)cc2)cs1
[Q] CCc1sc(C(=O)Nc2cc(Cl)cc(Cl)c2)nc1-c1ccc(F)cc1
Looking at recorded values for Ratio IC50, does P or Q come in lower? I would appreciate it if you answered with the label of your choice.
Q

[P] O=C(Nc1ccc(OC(F)F)cc1)c1nc(-c2ccccc2)cs1
[Q] N#Cc1cccc(-c2csc(C(=O)Nc3ccc(OC(F)F)cc3)n2)c1
Between P and Q , whose recorded Ratio IC50 is greater? I would appreciate it if you answered with the label of your choice.
P

[a] O=C(Nc1ccc(C(F)F)cc1)c1nc(-c2ccccc2)cs1
[b] COc1ccc(NC(=O)c2nc(-c3ccccc3)cs2)cc1
[c] O=C(Nc1ccc(I)cc1)c1nc(-c2cccc(F)c2)cs1
[d] Cc1sc(C(=O)Nc2cc(Cl)cc(Cl)c2)nc1-c1cccc(Cl)c1
Form: Sort by [Ratio IC50] Order [ ascending ] Hello, could you send the labels back in the order asked? Thank you.
d, b, c, a
(d: 25.2, b: 42, c: 104, a: 721)
